assay: compounds binding Alexa647 anti-His antibody – biochemical, small-molecule microarray, 635 nm fluorescence, artefact control for SMM control protein annotation, primary screen (AID 1128); conditions: higher = more signal;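 note: score merges feature fluorescence with signal-to-noise for each printed compound spot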
Rule: composite z-score of 1 or more gives Y; anything lower gives N.

[
  {
    "molecule": "C=CC[C@@]1(C(N)=O)N=C(c2ccc(OCCCO)cc2)O[C@@H]1c1ccccc1N=[N+]=[N-]",
    "classification": "Y"
  }
]

Query :: Could you verify whether the entry CCOC(=O)N1C(c2ccc(OCCCO)cc2)=NC(C(=O)OC)N1C(=O)OCC (stereo not drawn) shows composite z-score of no less than 1?
Result :: N

---

test: probe aInhba binding on compound microarray – biochemical, small-molecule microarray, 635/667 nm fluorescence, primary screen (AID 1148); conditions: higher = more signal;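 note: score merges 667nm spot fluorescence with signal-to-noise for antibody binding to printed compounds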
outcome measure: composite z-score

The examples below pair each entry with its known result.
[
  {
    "molecule smiles": "COCCOC(=O)N1C(=O)[C@@]2(c3cc(C#Cc4ccc(OC)cc4)ccc31)[C@H](C(N)=O)[C@H]1C(=O)O[C@H](c3ccccc3)[C@H](c3ccccc3)N1[C@@H]2c1ccc(O)cc1",
    "observed result": 0.295
  },
  {
    "molecule smiles": "C=CCNC(=O)[C@@H]1[C@H]2C(=O)O[C@H](c3ccccc3)[C@H](c3ccccc3)N2[C@H](c2ccccc2OCCO)[C@@]12C(=O)N(C(=O)OCCOC)c1ccc(C#CCC(C(=O)OC)C(=O)OC)cc12",
    "observed result": 0.86
  }
]

Recorded composite z-score (molecule [N-]=[N+]=Nc1ccccc1C[C@]1(C(=O)N2CCCCC2)N=C(c2ccc(OCCCO)cc2)O[C@H]1c1ccccc1N=[N+]=[N-] ): 0.622
